- Test system: P388
- Experiment Notes: The compound was tested for the cytotoxic activity against murine leukemia cells (P388)
- Assay type: functional, cell-based
- Condition Details: Mus musculus
Value Kind: IC50 (nM)
Unit nM implied. Number only.

>  <Smiles Repr>
O=C1c2c(c3c4ccc(O)cc4n([C@@H]4O[C@H](CO)[C@@H](O[C@H]5O[C@H](CO)[C@@H](O)[C@H](O)[C@H]5O)[C@H](O)[C@H]4O)c3c3[nH]c4cc(O)ccc4c23)C(=O)N1NC(CO)CO

>  <IC50 / nM>
3.5

$$$$
>  <Smiles Repr>
O=C1c2c(c3c4ccc(O)cc4n([C@H]4O[C@H](CO)[C@H](O)[C@H]4O)c3c3[nH]c4cc(O)ccc4c23)C(=O)N1NC(CO)CO

>  <IC50 / nM>
12

$$$$

Now turn to the next molecule.
Identify IC50 associated with the molecule O=C1c2c(c3c4ccc(O)cc4n([C@@H]4O[C@H](CO)[C@@H](O)[C@H]4O)c3c3[nH]c4cc(O)ccc4c23)C(=O)N1NC(CO)CO
1.8

* * *

- System: MKN-45
- Experiment Notes: Ratio of compound toxicity to that of anticancer activity against human stomach cancer cells MKN-45 in mice
- Assay type: functional
Value Kind: Saftey margin
Response field accepts a number only; no unit should be typed.

System MKN-45. Read-out Saftey margin. Item O=C1c2c(c3c4ccc(O)cc4n([C@@H]4O[C@H](CO)[C@@H](O)[C@H]4O)c3c3[nH]c4cc(O)ccc4c23)C(=O)N1NC(CO)CO . Report value.
2

Please indicate recorded Saftey margin of O=C1c2c(c3c4ccc(O)cc4n([C@@H]4O[C@H](CO)[C@@H](O)[C@@H](O)[C@H]4O)c3c3[nH]c4cc(O)ccc4c23)C(=O)N1NC(CO)CO measured with MKN-45.
2.3

# return Saftey margin for O=C1c2c(c3c4ccc(O)cc4n([C@@H]4O[C@H](C(O)CO)[C@@H](O)[C@H]4O)c3c3[nH]c4cc(O)ccc4c23)C(=O)N1NC(CO)CO (some centres undefined) , test system: MKN-45
1.4

* * *

- Tested on: MKN-45
- Experiment Notes: Ratio of compound toxicity to that of anticancer activity against human stomach cancer cells MKN-45 in mice
- Assay type: functional
Value Kind: Saftey margin
Give the value as a plain number.

Some entries whose results are on file:
>  <Smiles Repr>
O=C1c2c(c3c4ccc(O)cc4n([C@H]4O[C@H](CO)[C@@H](O)[C@H]4O)c3c3[nH]c4cc(O)ccc4c23)C(=O)N1NC(CO)CO

>  <Tested System>
MKN-45

>  <Number>
1.9

$$$$
>  <Smiles Repr>
O=C1c2c(c3c4ccc(O)cc4n([C@H]4O[C@H](CO)[C@@H](O)[C@H](O)[C@H]4O)c3c3[nH]c4cc(O)ccc4c23)C(=O)N1NC(CO)CO

>  <Tested System>
MKN-45

>  <Number>
1.5

$$$$

Proceeding to the next molecule to report its Saftey margin.
Entry O=C1c2c(c3c4ccc(O)cc4n([C@@H]4O[C@H](CO)[C@H](O)[C@H]4O)c3c3[nH]c4cc(O)ccc4c23)C(=O)N1NC(CO)CO needs its Saftey margin filled in; supply it.
1.4

* * *

- Tested System: DNA topoisomerase 1 (Homo sapiens, UniProt P11387)
- Sequence (P11387 whole entry): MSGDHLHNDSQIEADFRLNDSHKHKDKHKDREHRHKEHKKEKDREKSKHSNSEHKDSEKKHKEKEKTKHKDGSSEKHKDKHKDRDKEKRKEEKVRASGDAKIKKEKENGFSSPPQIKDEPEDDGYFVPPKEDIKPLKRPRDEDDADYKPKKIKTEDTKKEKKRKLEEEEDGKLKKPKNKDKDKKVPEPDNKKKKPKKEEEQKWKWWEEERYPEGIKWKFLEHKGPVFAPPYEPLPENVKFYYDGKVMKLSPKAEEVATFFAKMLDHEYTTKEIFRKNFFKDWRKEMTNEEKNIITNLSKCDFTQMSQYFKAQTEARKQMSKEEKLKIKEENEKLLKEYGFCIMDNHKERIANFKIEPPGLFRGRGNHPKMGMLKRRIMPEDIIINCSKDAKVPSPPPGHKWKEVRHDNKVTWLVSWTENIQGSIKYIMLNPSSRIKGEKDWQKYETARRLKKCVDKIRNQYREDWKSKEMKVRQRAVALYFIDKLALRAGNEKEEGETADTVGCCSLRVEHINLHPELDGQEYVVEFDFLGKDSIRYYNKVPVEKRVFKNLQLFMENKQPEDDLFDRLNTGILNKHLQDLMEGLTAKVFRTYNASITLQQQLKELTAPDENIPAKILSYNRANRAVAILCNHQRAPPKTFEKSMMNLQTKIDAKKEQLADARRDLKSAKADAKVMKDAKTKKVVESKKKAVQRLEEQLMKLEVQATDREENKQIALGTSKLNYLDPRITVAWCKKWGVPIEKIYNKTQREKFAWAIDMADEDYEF
- Experiment Notes: Inhibitory effect on topoisomerase-1 mediated DNA cleavage using supercoiled pBR322 plasmid DNA
Reported EC50 values for a set of molecules

>  <Smiles Repr>
O=C1c2c(c3c4ccc(O)cc4n([C@H]4C[C@@H](O)[C@H](O)[C@@H](CO)O4)c3c3[nH]c4cc(O)ccc4c23)C(=O)N1NC(CO)CO

>  <EC50>
240 nM

$$$$
>  <Smiles Repr>
O=C1c2c(c3c4ccc(O)cc4n([C@H]4O[C@H](CO)[C@@H](O)[C@@H](O)[C@H]4O)c3c3[nH]c4cc(O)ccc4c23)C(=O)N1NC(CO)CO

>  <EC50>
26 nM

$$$$

Now take the following molecule into account.
Determine from records and report EC50 for O=C1c2c(c3c4ccc(O)cc4n([C@@H]4O[C@H](CO)[C@@H](O[C@H]5O[C@H](CO)[C@@H](O)[C@H](O)[C@H]5O)[C@H](O)[C@H]4O)c3c3[nH]c4cc(O)ccc4c23)C(=O)N1NC(CO)CO
> 3000 nM

* * *

- Tested System: DNA topoisomerase 1 (Homo sapiens)
- Experiment Notes: Inhibitory effect on topoisomerase-1 mediated DNA cleavage using supercoiled pBR322 plasmid DNA
Measured EC50 by item
I only need the number, in µM, no unit after it.

>  <Compound>
O=C1c2c(c3c4ccc(O)cc4n([C@@H]4O[C@H](CO)[C@@H](O)[C@@H](O)[C@H]4O)c3c3[nH]c4cc(O)ccc4c23)C(=O)N1NC(CO)CO

>  <Tested System>
DNA topoisomerase 1 (Homo sapiens)

>  <Unit>
µM

>  <EC50>
0.026

$$$$

Moving on to the next compound.
Give the reported value of EC50 for this record: O=C1c2c(c3c4ccc(O)cc4n([C@@H]4O[C@H](CO)[C@H](O)[C@H](O)[C@H]4O)c3c3[nH]c4cc(O)ccc4c23)C(=O)N1NC(CO)CO
0.14

* * *

- Tested System: Protein kinase C (PKC)
- Experiment Notes: Inhibitory effect on protein kinase C using histone II-As as substrate
- Assay type: protein assay
Values of IC50 strictly less than 70 µM map to label 1, and values of at least 70 µM map to label 0.

See these solved cases before continuing.
>  <Molecule>
O=C1c2c(c3c4ccc(O)cc4n([C@H]4O[C@H](CO)[C@@H](O)[C@@H]4O)c3c3[nH]c4cc(O)ccc4c23)C(=O)N1NC(CO)CO

>  <Category Label>
label 0

$$$$
>  <Molecule>
O=C1c2c(c3c4ccc(O)cc4n([C@H]4O[C@H](CO)[C@@H](O)[C@H](O)[C@H]4O)c3c3[nH]c4cc(O)ccc4c23)C(=O)N1NC(CO)CO

>  <Category Label>
label 1

$$$$
>  <Molecule>
O=C1c2c(c3c4ccc(O)cc4n([C@@H]4OC[C@@H](O)[C@H]4O)c3c3[nH]c4cc(O)ccc4c23)C(=O)N1NC(CO)CO

>  <Category Label>
label 1

$$$$

hey, is IC50 for O=C1c2c(c3c4ccc(O)cc4n([C@H]4O[C@H](CO)[C@H](O)[C@H]4O)c3c3[nH]c4cc(O)ccc4c23)C(=O)N1NC(CO)CO lower than 70 µM or not?
label 0

Please let me know if O=C1c2c(c3c4ccc(O)cc4n([C@@H]4O[C@H](CO)[C@@H](O)[C@H](O)[C@H]4O)c3c3[nH]c4cc(O)ccc4c23)C(=O)N1NC(CO)CO shows IC50 below 70 µM.
label 0

Please indicate whether the reported IC50 of O=C1c2c(c3c4ccc(O)cc4n([C@@H]4O[C@H](CO)[C@H](O)[C@H](O)[C@H]4O)c3c3[nH]c4cc(O)ccc4c23)C(=O)N1NC(CO)CO is strictly below 70 µM.
label 0

Confirm or reject: IC50 of O=C1c2c(c3c4ccc(O)cc4n([C@@H]4O[C@H](CO)[C@@H](O)[C@@H](O)[C@H]4O)c3c3[nH]c4cc(O)ccc4c23)C(=O)N1NC(CO)CO lies strictly below 70 µM
label 1

Hello, I'm reviewing records and need to know if IC50 of O=C1c2c(c3c4ccc(O)cc4n([C@@H]4OC[C@@H](O)[C@H](O)[C@H]4O)c3c3[nH]c4cc(O)ccc4c23)C(=O)N1NC(CO)CO is below 70 µM. Could you check?
label 0

Please indicate whether the reported IC50 of O=C1c2c(c3c4ccc(O)cc4n([C@@H]4C[C@@H](O)[C@H](O)[C@@H](CO)O4)c3c3[nH]c4cc(O)ccc4c23)C(=O)N1NC(CO)CO is strictly below 70 µM.
label 0

Quick check: does O=C1c2c(c3c4ccc(O)cc4n([C@@H]4O[C@@H](C(O)CO)[C@@H](O)[C@H]4O)c3c3[nH]c4cc(O)ccc4c23)C(=O)N1NC(CO)CO (stereo partly drawn) have IC50 under 70 µM?
label 0

Threshold test, IC50 < 70 µM: O=C1c2c(c3c4ccc(O)cc4n([C@@H]4O[C@H](CO)[C@@H](O)[C@H](O)[C@@H]4O)c3c3[nH]c4cc(O)ccc4c23)C(=O)N1NC(CO)CO
label 1

Lab note: confirm whether the reported IC50 for this molecule is below 70 µM, equality not counting. molecule: O=C1c2c(c3c4ccc(O)cc4n([C@@H]4O[C@H](CO)[C@H](O)[C@H]4O)c3c3[nH]c4cc(O)ccc4c23)C(=O)N1NC(CO)CO
label 0
